Exercise: state measured protein stability index for each of the variants provided.
B1: YPEL3 (parent)
chain: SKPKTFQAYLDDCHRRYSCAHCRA

Variants of: B1
Assay: protein stability index of a GFP-peptide fusion (GPS, HEK-293T) (PSI 1-6); higher = more stable;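 also: lentivirally expressed fusions sorted by FACS into six bins by GFP to DsRed ratio, PSI derived from sequencing read proportions per bin multiplied by bin number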
Details: c terminus: a fixed tail appended

protein stability index for `S18K` ?
2.01

Any idea what its protein stability index is? The variant is `R23V`
3.34

Data request, read-out protein stability index, for `H21K`
2.37

Report protein stability index for `D11E` please.
2.59

I am curious: what protein stability index value has been reported for `H14L` ?
1.82

# protein stability index lookup, item `R23I`
3.07

Any idea what protein stability index was measured for `D11T` ?
2.14

I would be grateful if you could share the reported protein stability index for `C22W` .
1.77

If you can, please state the reported protein stability index value of `C22E` .
2.34

Field request: protein stability index | item: `D12W`
1.67

Suppose we examine the variant `Y17T` ; what protein stability index value has been reported?
2.37

For `H14P` , what is its reported protein stability index?
2.05

Reported protein stability index, variant `R23L` : ____
2.37
